Target: DRB1*1501 (Homo sapiens, UniProt P01903+P01911)
Experiment: biochemical
pIC50: −log10 of the molar value.

{"molecule": "CC[C@H](C)[C@H](NC(=O)[C@H](C)NC(=O)[C@H](CC(N)=O)NC(=O)[C@H](C)N)C(=O)N[C@@H](Cc1ccccc1)C(=O)N[C@@H](CCCCN)C(=O)N[C@@H](CC(C)C)C(=O)N[C@H](C(=O)N[C@@H](Cc1ccc(O)cc1)C(=O)N[C@@H](CCC(N)=O)C(=O)N[C@@H](CC(N)=O)C(=O)N[C@@H](CCCCN)C(=O)N[C@H](C(=O)N[C@H](C(=O)N[C@@H](CCCCN)C(=O)N[C@H](C(=O)N[C@@H](CCC(N)=O)C(=O)O)C(C)C)C(C)C)C(C)C)[C@@H](C)O [NS5 564-580]", "pIC50": 7.55}
